test-summary: Evaluated for the apparent partition coefficient between 1-octanol and phosphate buffer at pH 5.0.
Type: physicochemical
condition-label: 1-octanol/phosphate buffer
I'd be grateful if you could share measured logD for these entries.
One number for each entry.

Give me logD for each of these compounds, listed below.
1. COc1ccc2cc(C(C)C(=O)OCCOC(=O)CN3CCOCC3)ccc2c1 (stereo not given)
2. COc1ccc2cc(C(C)C(=O)OCCCCOC(=O)CCCN3CCN(C)CC3)ccc2c1 (stereo not given)
3. COc1ccc2cc(C(C)C(=O)OCCOC(=O)CN3CCN(C)CC3)ccc2c1 (stereo not given)
4. COc1ccc2cc(C(C)C(=O)OCCCCOC(=O)CCN3CCN(C)CC3)ccc2c1 (stereo not given)
5. COc1ccc2cc(C(C)C(=O)OCCCCOC(=O)CN3CCN(C)CC3)ccc2c1 (stereo not given)

Result:
1: 2.62; 2: 1.41; 3: 0.43; 4: 1.2; 5: 0.94

Value source: ChEMBL document CHEMBL1133007
